System: SF-539 CNS
Assay: NCI tumour cell line growth inhibition, 384-well format

compound: Cc1ccccc1N=Nc1ccc(NC(=O)c2ccnn2C)c(C)c1
TGI: > 100 µM

compound: COc1ncc(-c2ccc3nccc(-c4ccnnc4)c3c2)cc1NS(=O)(=O)c1ccc(F)cc1F
TGI: 0.103 µM

compound: CC1=C2C[C@H]3[C@@H](CC[C@@H]4CC(NS(C)(=O)=O)CC[C@@]43C)[C@@H]2CC[C@@]2(C1)O[C@@H]1C[C@H](C)CN[C@H]1[C@H]2C (stereo not given in full)
TGI: 15.9 µM

compound: C#CCC(Cc1cnc2nc(N)nc(N)c2n1)c1ccc(C(=O)N[C@@H](CCC(=O)O)C(=O)O)cc1 (stereo not given in full)
TGI: < 0.01 µM

compound: CCc1c(C#N)c(S[C@@H](C(N)=O)c2ccccc2)nc(N(C)C)c1C#N
TGI: > 100 µM
